Values compiled from PubChem BioAssay (NCI).

- Test system: RXF 393 renal
- Method Description: NCI-60 one-dose screen, 48 h (100 = growth as untreated, 0 = no growth, -100 = all killed)
- Condition Details: 10 µM unless noted
- Procedure: Cells are grown in 96 well plates and exposed to the test compound for 48 hours. Compounds are tested at a single concentration, which is 10^-5 M for most compounds. The reported endpoint is percent growth (GI% or GIPRCNT), where numbers from 0 - 100% represent growth inhibition, and numbers from -100% - 0 represent cell death. For example, a value of 40 represents 60% growth inhibition. A value of 0 means no net growth occurred over the course of the experiment. […]
This is part of a sample that, as a whole, favours compounds with a hit. Of some 83,000 tested, about 20% had one in any assay.
The following molecules are listed with their measured growth values.
Report as a plain number; the unit % is understood.

1) COC(=O)CNc1nc(N(C)O)nc(N(C)O)n1: 47.2
2) COc1cccc(-c2nn(-c3ccccc3)cc2-c2ccnc(NCCCNS(=O)(=O)c3cccc(F)c3)c2)c1: 15.8
3) O=C(/C=C\c1ccc2c(c1)OCO2)/C=C/c1ccc2c(c1)OCO2: 85

Lookup: Return growth (reported value) for this molecule: O=c1[nH]c2c3ccncc3cc(-c3cccc(Cl)c3)c2c2cnccc12
Found: -16.5

Lookup: Determine its reported growth: COc1cccc(NC(=O)c2sc3nc4c(cc3c2N)C(=O)CCC4)c1
Found: 41

Lookup: Identify growth associated with the molecule COc1ccc(-c2cc(-c3cccs3)n(N=O)c(=O)c2C#N)cc1
Found: 96.3

====

- Test system: MALME-3M melanoma
- Method Description: NCI-60 one-dose screen, 48 h
- Condition Details: 10 µM unless noted
- Procedure: Cells are grown in 96 well plates and exposed to the test compound for 48 hours. Compounds are tested at a single concentration, which is 10^-5 M for most compounds. The reported endpoint is percent growth (GI% or GIPRCNT), where numbers from 0 - 100% represent growth inhibition, and numbers from -100% - 0 represent cell death. For example, a value of 40 represents 60% growth inhibition. A value of 0 means no net growth occurred over the course of the experiment. […]
This is part of a sample that, as a whole, favours compounds with a hit. Of some 83,000 tested, about 20% had one in any assay. Active and inactive are the calls of the source. The calls were made as follows: active = growth percent below 10; inactive = the rest.
Just give me one of these, please: yes (1) = active, no (0) = inactive

// below: answered compounds
1. COc1ccccc1-n1cnc(N)c1C(=O)c1cc(OC)c(OC)c(OC)c1: no (0)
2. N#CC1=C(N)Oc2c(c(N)nn2-c2ccccc2)C1c1ccc(Cl)cc1 (centres undefined): no (0)
3. CC(=O)O[C@H]1CC[C@]2(C)[C@H]3C(=O)C=C4[C@@H]5C[C@](C)(C(=O)N6CCCNCC6)CC[C@]5(C)CC[C@@]4(C)[C@]3(C)CC[C@H]2C1(C)C: yes (1)
4. Cc1oc(-c2ccccc2Cl)cc1C(=O)Nc1ccc(S(N)(=O)=O)cc1: no (0)

Lookup: How did this test come out for COc1cc2[nH]c(C(=O)c3cc(OC)c(OC)c(OC)c3)c(N)c2cc1C#CC1CC1 ?
Found: no (0)

====

- Tested on: IGROV1 ovarian
- Method Description: NCI-60 one-dose screen, 48 h (100 = growth as untreated, 0 = no growth, -100 = all killed)
- Condition Details: 10 µM unless noted
This is part of a sample that, as a whole, favours compounds with a hit. Of some 83,000 tested, about 20% had one in any assay.
Returns one of t or f; t when growth is >= 70%.

1) CC1=NN(c2ccc(S(=O)(=O)O)cc2Cl)C(=O)C1: t
2) Fc1ccc2nc(-c3cc(-c4ccc5c(c4)OCO5)n[nH]3)[nH]c2c1: f
3) CC(=O)OC(C)COc1ccc(-c2ccccc2)cc1 (stereo not given): t
4) CCOC(=O)N1CCN(CCCCOc2ccc(C(C)(C)CC)cc2)CC1: t
5) COc1ccc(C2CC(=O)c3c(nc4ccc(Cl)cc4c3N)C2)cc1 (stereo not given): t
6) COc1ccc2[nH]cc(-c3nc(-c4c[nH]c5ncccc45)cs3)c2c1: f
7) Cc1csc(-c2ccc3c(c2)COC3(CCCN(C)C)c2ccc(F)cc2)c1 (stereo not given): f
8) Nc1ncnc2nc(Br)[nH]c12: t

We next turn to a different compound, shown below.
Lookup: Decide: is the reported value of growth for COC(=O)[C@]12CC[C@@H](C)[C@H](C)[C@@H]1C1=CC[C@@H]3[C@@]4(C)C=C(O)C(=O)C(C)=C4CC[C@@]3(C)[C@]1(C)CC2 equal to or greater than 70%?
Found: f

====

- System: NCI-H226 lung
- Method Description: NCI-60 one-dose screen, 48 h (100 = growth as untreated, 0 = no growth, -100 = all killed)
- Condition Details: 10 µM unless noted
About 83,000 compounds went through this panel and 20% of them were active in at least one assay; those are over-represented in the sample as a whole.
The label Yes is reserved for growth strictly under 80%; No covers values equal to or above it.

Answered examples (3):
1) COc1ccc2c(c1)c(-c1nc(-c3c[nH]c4ncccc34)cs1)cn2CCN: Yes
2) N#C/C(=C\c1ccc(-c2ccc(Cl)cc2)o1)c1nc(-c2ccco2)cs1: No
3) CCOC(=O)N1CCN(CCCCOc2ccc(C(C)(C)CC)cc2)CC1: No

Lookup: Please state whether growth is below 80% for Cc1ccc(-c2nn(Cc3cn(-c4cc(C)nc5ccccc45)nn3)c3ncnc(N)c23)cc1
Found: Yes

Lookup: Threshold test, growth < 80%: COc1ccc(-c2n/c(=C\c3c(O)[nH]c4ccc(OC)cc34)cc3c2=Nc2ccccc2-3)cc1
Found: No

Lookup: Just wondering, is growth of COc1ccc(NC(=O)c2ccc3c(c2)nc(-c2cc4ccccc4[nH]c2=O)n3-c2cc(C(C)(C)C)[nH]n2)cc1 below 80%?
Found: No

====

- Tested on: UO-31 renal
- Method Description: NCI-60 one-dose screen, 48 h (100 = growth as untreated, 0 = no growth, -100 = all killed)
- Condition Details: 10 µM unless noted
Compounds without any hit were thinned out: in the full panel of roughly 83,000, 20% have a hit.
Classify by measured growth: Condition met if it is equal to or exceeds 70%, Condition not met if it is smaller.

Use these answered entries as a reference point.
1) N#Cc1cnc2cc(OC[C@@H](O)CO)c(NC(=O)CC3CSSC3)cc2c1Nc1ccc(OCc2cccc(F)c2)c(Cl)c1: Condition not met
2) Cn1c(=O)c2c(ncn2CCC(=O)Nc2ccc(F)cc2)n(C)c1=O: Condition met
3) Brc1ccc2[nH]cc(-c3nc(-c4c[nH]c5ncccc45)cs3)c2c1: Condition not met
4) O=c1c(CNc2ccc(S(=O)(=O)Nc3ncccn3)cc2)coc2ccccc12: Condition met
5) C[C@@H](Oc1ccc(C(=O)NS(=O)(=O)C(C)(C)C)cc1C(F)(F)F)c1ccc(Oc2ccccc2)cn1: Condition not met

Lookup: Hi team, for CN(C)c1cccc2[nH]c(-c3[nH]ncc3Nc3ccnc(N)n3)nc12 , is the recorded growth at or above 70%?
Found: Condition not met

Lookup: Given the entry N#CC1C(=N)Cc2ccccc2-c2ccccc21 (stereo not given) , answer whether its growth meets or surpasses 70%.
Found: Condition not met

Lookup: Would you say Cc1cc(Cl)c2c(N(C)C)cccc2n1 shows growth at minimum 70%?
Found: Condition met

Lookup: Entry Cc1cccc(C)c1NCc1nc(-c2ccccc2)n[nH]1 : is its growth no less than 70%?
Found: Condition met

====

- Test system: SN12C renal
- Method Description: NCI-60 one-dose screen, 48 h (100 = growth as untreated, 0 = no growth, -100 = all killed)
- Condition Details: 10 µM unless noted
- Procedure: Growth inhibition of the SN12C human tumor cell line is measured as a screen for anti-cancer activity. Cells are grown in 96 well plates and exposed to the test compound for 48 hours. Compounds are tested at a single concentration, which is 10^-5 M for most compounds. The reported endpoint is percent growth (GI% or GIPRCNT), where numbers from 0 - 100% represent growth inhibition, and numbers from -100% - 0 represent cell death. For example, a value of 40 represents 60% growth inhibition. […]
This is part of a sample that, as a whole, favours compounds with a hit. Of some 83,000 tested, about 20% had one in any assay. Active and inactive are the calls of the source. How the source made its calls: active means growth percent below 10; inactive means the rest.
Quantity: growth

Please review the entries below; each comes with its answer.
1. O=C(/C=C/c1cccc(O)c1)c1ccccc1O: 83.7% (inactive)
2. Cc1nn2c(-c3nc4cc(Cl)c(Cl)cc4[nH]3)c(-c3ccc(F)cc3)nc2s1: 34% (inactive)
3. COC(=O)[C@]12CC[C@@H](C(/C=C/c3cccnc3)=N/O)[C@@H]1[C@H]1CC[C@@H]3[C@@]4(C)CC(=C/c5cccnc5)/C(=N/O)C(C)(C)[C@@H]4CC[C@@]3(C)[C@]1(C)CC2: 44.5% (inactive)
4. O=c1c2sc3ncc(Br)cc3c2ncn1-c1cccc(Cl)c1: 64.5% (inactive)
5. C[C@@H]1CCCCCCCCC[C@H](O)C(=O)C[C@@H](SC[C@@H](O)C(=O)O)C(=O)O1: 93.6% (inactive)
6. O=C1C=C(C(O)c2ccc(O)cc2)C(=O)c2ccccc21 (centres undefined): 107% (inactive)
7. Cc1cc(N2CCCC2)nc(N(CCNc2ccnc3cc(Cl)ccc23)Cc2ccco2)n1: 28.8% (inactive)
8. COc1cc(-c2cc3ncccc3c3nc(N)c4cccnc4c23)cc(OC)c1OC: 26.7% (inactive)

Consider the record given below.
Lookup: Provide measured growth value, entry: Cc1cc(N2CCOCC2)nc(N(CCCNc2ccnc3cc(Cl)ccc23)Cc2ccco2)n1
Found: 40.4% (inactive)
